Reference source for all entries: patent US12250947B2

tested on: Avena fatua (AVEFA); experiment: Herbicidal glasshouse test, pre-emergence, AVEFA; format: in vivo; conditions: 250 g/Ha, evaluated after 13 days
experimental.readout: percentage damage caused to the plant, five-point scale, AVEFA

Please review the following examples before continuing.
>>> print(df.to_string())
                                   molecule         result
0  CC#Cc1cc(C)c(C2C(=O)CC3(CCN(C(=O)C(=O)N(C)C)CC3)CC2=O)c(C)c1   4 (4=60-79%)
1  CC#Cc1cc(C)c(C2C(=O)CC3(CCN(C(=O)C(=O)NC(C)(C)C)CC3)CC2=O)c(C)c1  5 (5=80-100%)
2  CC#Cc1cc(C)c(C2C(=O)CC3(CCN(C(=O)C(=O)C(C)(C)C)CC3)CC2=O)c(C)c1   3 (3=40-59%)
3  CC#Cc1cc(C)c(C2C(=O)CC3(CCN(C(=O)C(N)=O)CC3)CC2=O)c(C)c1  5 (5=80-100%)
4  CC#Cc1cc(C)c(C2=C(OC(=O)OC)CC3(CCN(C(=O)C(C)=O)CC3)CC2=O)c(C)c1 [Compound P1]  5 (5=80-100%)

Request body: readout percentage damage caused to the plant, five-point scale, AVEFA, system Avena fatua (AVEFA), query CC#Cc1cc(C)c(C2C(=O)CC3(CCN(C(=O)C(C)=O)CC3)CC2=O)c(C)c1 . Return the value.
5 (5=80-100%)

Param item: CC#Cc1cc(C)c(C2C(=O)CC3(CCN(C(=O)C(=O)C(F)(F)F)CC3)CC2=O)c(C)c1
4 (4=60-79%)

Param item: CC#Cc1cc(C)c(C2C(=O)CC3(CCN(C(=O)C(=O)OCC)CC3)CC2=O)c(C)c1
1 (1=0-19%)

Param item: CC#Cc1cc(C)c(C2C(=O)CC3(CCN(C(=O)C(=O)Nc4ccccn4)CC3)CC2=O)c(C)c1
4 (4=60-79%)

Param item: CC#Cc1cc(C)c(C2C(=O)CC3(CCN(C(=O)C(=O)NC)CC3)CC2=O)c(C)c1
5 (5=80-100%)
